# TEST DESCRIPTION: Equilibrium solubility in simulated fluids and water at 37° C.
# Type: physicochemical
# EXPERIMENTAL PARAMETERS: water, 37 °C, water, thermodynamic from solid, water, 24 hrs, mg of Compound A (free base), above calibration range, read-out: Concentration
Reported solubility at 24 h is given for each of the following compounds.

Entry N#Cc1cccc(-c2ccc3ncc(-c4cc(F)cc(F)c4)c(N4CCC(N)CC4)c3c2)c1O [Compound A] ; solubility at 24 h = > 9770 µg/mL

Entry CS(=O)(=O)O.CS(=O)(=O)O.N#Cc1cccc(-c2ccc3ncc(-c4cc(F)cc(F)c4)c(N4CCC(N)CC4)c3c2)c1O [Pattern B] ; solubility at 24 h = > 6250 µg/mL

---

# TEST DESCRIPTION: Equilibrium solubility in simulated fluids and water at 37° C.
# Assay type: physicochemical
# EXPERIMENTAL PARAMETERS: FaSSIF, 37 °C, pH 6.48, fassif, thermodynamic from solid, FaSSIF (pH 6.48), 24 hrs, mg of Compound A (free base), read-out: Concentration
OUTCOME MEASURE: solubility thermodynamic at 24 h (µg/mL)
Supply the numeric figure in µg/mL, leaving out any unit text.

COMPOUND: CS(=O)(=O)O.CS(=O)(=O)O.N#Cc1cccc(-c2ccc3ncc(-c4cc(F)cc(F)c4)c(N4CCC(N)CC4)c3c2)c1O [Pattern B]
OUTCOME MEASURE: solubility thermodynamic at 24 h
NUMERIC VALUE: 11

Please turn your attention to the following entry.
Entry N#Cc1cccc(-c2ccc3ncc(-c4cc(F)cc(F)c4)c(N4CCC(N)CC4)c3c2)c1O [Compound A] ; solubility thermodynamic at 24 h = 9

---

# TEST DESCRIPTION: Stability of XRPD pattern on drying
# Format: physicochemical
# EXPERIMENTAL PARAMETERS: solids from short term slurries; vacuum oven at 50° C., minimum of 4 hours; dimesylate
OUTCOME MEASURE: XRPD pattern upon drying

In the examples that follow, each entry is paired with its recorded XRPD pattern upon drying.
COMPOUND: CS(=O)(=O)O.CS(=O)(=O)O.N#Cc1cccc(-c2ccc3ncc(-c4cc(F)cc(F)c4)c(N4CCC(N)CC4)c3c2)c1O [Pattern B]
RESULT: stable upon drying
//
COMPOUND: CS(=O)(=O)O.CS(=O)(=O)O.N#Cc1cccc(-c2ccc3ncc(-c4cc(F)cc(F)c4)c(N4CCC(N)CC4)c3c2)c1O [Pattern I]
RESULT: stable upon drying
//
COMPOUND: CS(=O)(=O)O.CS(=O)(=O)O.N#Cc1cccc(-c2ccc3ncc(-c4cc(F)cc(F)c4)c(N4CCC(N)CC4)c3c2)c1O [Pattern F]
RESULT: converted to Pattern I
//
COMPOUND: CS(=O)(=O)O.CS(=O)(=O)O.N#Cc1cccc(-c2ccc3ncc(-c4cc(F)cc(F)c4)c(N4CCC(N)CC4)c3c2)c1O [Pattern G]
RESULT: converted to Pattern I
//
COMPOUND: CS(=O)(=O)O.CS(=O)(=O)O.N#Cc1cccc(-c2ccc3ncc(-c4cc(F)cc(F)c4)c(N4CCC(N)CC4)c3c2)c1O [Pattern H]
RESULT: converted to Pattern I

Please turn your attention to the following entry.
Entry CS(=O)(=O)O.CS(=O)(=O)O.N#Cc1cccc(-c2ccc3ncc(-c4cc(F)cc(F)c4)c(N4CCC(N)CC4)c3c2)c1O [Pattern C] ; XRPD pattern upon drying = stable upon drying

---

# TEST DESCRIPTION: Kinetic solubility studies in FaSSIF and FeSSIF
# Assay type: physicochemical
# EXPERIMENTAL PARAMETERS: thermodynamic from solid; FaSSIF (pH 6.5), 37° C., 1 day; read-out: Concentration
OUTCOME MEASURE: solubility thermodynamic at 1 day
# include the unit after the value

Entry CS(=O)(=O)O.CS(=O)(=O)O.N#Cc1cccc(-c2ccc3ncc(-c4cc(F)cc(F)c4)c(N4CCC(N)CC4)c3c2)c1O [Pattern B] ; solubility thermodynamic at 1 day = 8 µg/mL

---

# TEST DESCRIPTION: Kinetic solubility studies in FaSSIF and FeSSIF
# Type: physicochemical
# EXPERIMENTAL PARAMETERS: thermodynamic from solid; FeSSIF (pH 5.0), 37° C., 1 day; read-out: Concentration
OUTCOME MEASURE: solubility thermodynamic at 1 day (µg/mL)
Supply the numeric figure in µg/mL, leaving out any unit text.

Entry `CS(=O)(=O)O.CS(=O)(=O)O.N#Cc1cccc(-c2ccc3ncc(-c4cc(F)cc(F)c4)c(N4CCC(N)CC4)c3c2)c1O` ; solubility thermodynamic at 1 day = 502

---

# TEST DESCRIPTION: Stability of XRPD pattern on drying
# Assay type: physicochemical
# EXPERIMENTAL PARAMETERS: solids from short term slurries; vacuum oven at 50° C., minimum of 4 hours; dimesylate
OUTCOME MEASURE: XRPD pattern upon drying

MOLECULE: CS(=O)(=O)O.CS(=O)(=O)O.N#Cc1cccc(-c2ccc3ncc(-c4cc(F)cc(F)c4)c(N4CCC(N)CC4)c3c2)c1O [Pattern D]
RESULT: converted to Pattern A
//
MOLECULE: CS(=O)(=O)O.CS(=O)(=O)O.N#Cc1cccc(-c2ccc3ncc(-c4cc(F)cc(F)c4)c(N4CCC(N)CC4)c3c2)c1O [Pattern E]
RESULT: converted to Pattern A
